Source listed as patent US20260294915A1.

tested on: UMUC11; test: 10-day proliferation screen with Compound A pre-treatment (Example 3); type: cell-based; settings: DMSO pre-treatment; read-out: Growth IC50
Parameter: IC50 (nM)

1) NS(=O)(=O)c1ccc(S(=O)(=O)Nc2cccc3c(Cl)c[nH]c23)cc1 [Indisulam] : 864

* * *

tested on: TCCSUP; assay: 10-day proliferation screen with Compound A pre-treatment (Example 3); format: cell-based; conditions: Homo sapiens, TCC-SUP, DMSO pre-treatment; read-out: Growth IC50
Parameter: IC50 (µM)

1. NS(=O)(=O)c1ccc(S(=O)(=O)Nc2cccc3c(Cl)c[nH]c23)cc1 : 8.66

* * *

System: NCI-H838
Test: 10-day proliferation screen with Compound A pre-treatment (Example 3)
Type: cell-based
Conditions: Homo sapiens, NCI-H838, Cmpd A pre-treatment 150 nM; read-out: Growth IC50
Procedure: A 10-day proliferation screen was performed in 15 pancreatic, non-small cell lung, and bladder cancer cell lines: 10 MTAP null and 5 MTAP wild-type. Optimal cell seeding for all cell lines was determined by assessing the growth over a range of seeding densities in a 384-well format to identify conditions that permitted proliferation for 10 days. […] A plate of cells was harvested at the time of combination compound addition to quantify the number of cells at the start of the combination (T0). […]
Parameter: IC50

1. NS(=O)(=O)c1ccc(S(=O)(=O)Nc2cccc3c(Cl)c[nH]c23)cc1 : 342 nM

* * *

system: SW900; test: 10-day proliferation (CTG), equimolar Compound A + SPLAM (Example 4); format: cell-based; conditions: Homo sapiens, SW900, 240 h; 10 days; single agent or 1:1 combo; read-out: gIC50
Parameter: IC50 (nM)

1. Nc1nc(=O)n(-c2ccccc2Cl)c2nc(C(F)(F)F)ccc12 : 20000
2. Cc1ccc(NS(=O)(=O)c2cccc(C#N)c2)c2[nH]cc(C#N)c12 : 296
3. NS(=O)(=O)c1ccc(S(=O)(=O)Nc2cccc3c(Cl)c[nH]c23)cc1 : 305

* * *

tested on: NCI-H838; test: 10-day proliferation screen with Compound A pre-treatment (Example 3); format: cell-based; conditions: Homo sapiens, NCI-H838, DMSO pre-treatment (control for 150 nM Cmpd A); read-out: Growth IC50
Parameter: IC50 (nM)

1) NS(=O)(=O)c1ccc(S(=O)(=O)Nc2cccc3c(Cl)c[nH]c23)cc1 : 807

* * *

tested on: HuP-T4; assay: 10-day proliferation screen with Compound A pre-treatment (Example 3); type: cell-based; conditions: Homo sapiens, HuP-T4, DMSO pre-treatment; read-out: Growth IC50
pIC50: −log10 of the molar value.
Parameter: pIC50

1) NS(=O)(=O)c1ccc(S(=O)(=O)Nc2cccc3c(Cl)c[nH]c23)cc1 [Indisulam] : 5.97

* * *

test system: NCI-H520; assay: 10-day proliferation (CTG), equimolar Compound A + Compound B (Example 1); assay type: cell-based; settings: Homo sapiens, NCI-H520, 240 h; 10 days; single agent or 1:1 combo; read-out: gIC50
Recorded measurements of IC50, one per entry
Parameter: IC50 (µM)

1. Cc1cc(NC(=O)c2ccc(NS(=O)(=O)CCO)cc2N2CCC3(CC2)CC3)nc(N2CCC(F)(F)CC2)n1 : 5.8
2. Nc1nc(=O)n(-c2ccccc2Cl)c2nc(C(F)(F)F)ccc12 : 20

* * *

Recorded measurements of IC50, one per entry
test system: SW900; assay: 10-day proliferation (CTG), equimolar Compound A + SPLAM (Example 4); format: cell-based; conditions: Homo sapiens, SW900; single agent or 1:1 combo; read-out: gIC50
Parameter: IC50 (µM)

1) O=C(NS(=O)(=O)c1ccc(Br)s1)c1ccc(Cl)cc1Cl [Tasisulam] : 20
2) Nc1nc(=O)n(-c2ccccc2Cl)c2nc(C(F)(F)F)ccc12 [Compound A] : 20

* * *

Tested on: HuP-T4
Assay: 10-day proliferation screen with Compound A pre-treatment (Example 3)
Assay type: cell-based
Conditions: Homo sapiens, HuP-T4, Cmpd A pre-treatment 150 nM; read-out: Growth IC50
Experimental: A 10-day proliferation screen was performed in 15 pancreatic, non-small cell lung, and bladder cancer cell lines: 10 MTAP null and 5 MTAP wild-type. Optimal cell seeding for all cell lines was determined by assessing the growth over a range of seeding densities in a 384-well format to identify conditions that permitted proliferation for 10 days. […] A plate of cells was harvested at the time of combination compound addition to quantify the number of cells at the start of the combination (T0). […]
Parameter: IC50 (nM)

1) NS(=O)(=O)c1ccc(S(=O)(=O)Nc2cccc3c(Cl)c[nH]c23)cc1 : 549

* * *

System: Panc 03.27 MTAP Knock-out Clone 31
Assay: 10-day proliferation screen with Compound A pre-treatment (Example 3)
Assay type: cell-based
Conditions: Homo sapiens, PANC-03-27, DMSO pre-treatment; read-out: Growth IC50
Procedure: A 10-day proliferation screen was performed in 15 pancreatic, non-small cell lung, and bladder cancer cell lines: 10 MTAP null and 5 MTAP wild-type. Optimal cell seeding for all cell lines was determined by assessing the growth over a range of seeding densities in a 384-well format to identify conditions that permitted proliferation for 10 days. […] A plate of cells was harvested at the time of combination compound addition to quantify the number of cells at the start of the combination (T0). […]
pIC50: −log10 of the molar value.
Parameter: pIC50

1) NS(=O)(=O)c1ccc(S(=O)(=O)Nc2cccc3c(Cl)c[nH]c23)cc1 : 5.66

* * *

Recorded measurements of pIC50, one per entry
system: RT112/84; assay: 10-day proliferation (CTG), equimolar Compound A + SPLAM (Example 4); type: cell-based; details: Homo sapiens, RT112/84, 240 h; 10 days; single agent or 1:1 combo; read-out: gIC50
pIC50: −log10 of the molar value.
Parameter: pIC50

1) Cc1ccc(NS(=O)(=O)c2cccc(C#N)c2)c2[nH]cc(C#N)c12 : 6.58
2) Nc1nc(=O)n(-c2ccccc2Cl)c2nc(C(F)(F)F)ccc12 : 5.47
3) NS(=O)(=O)c1ccc(S(=O)(=O)Nc2cccc3c(Cl)c[nH]c23)cc1 : 6.53

* * *

Test system: SW900
Assay: 10-day proliferation screen with Compound A pre-treatment (Example 3)
Assay type: cell-based
Conditions: Homo sapiens, SW900, DMSO pre-treatment; read-out: Growth IC50
Experimental: A 10-day proliferation screen was performed in 15 pancreatic, non-small cell lung, and bladder cancer cell lines: 10 MTAP null and 5 MTAP wild-type. Optimal cell seeding for all cell lines was determined by assessing the growth over a range of seeding densities in a 384-well format to identify conditions that permitted proliferation for 10 days. […] A plate of cells was harvested at the time of combination compound addition to quantify the number of cells at the start of the combination (T0). […]
pIC50: −log10 of the molar value.
Parameter: pIC50

1) NS(=O)(=O)c1ccc(S(=O)(=O)Nc2cccc3c(Cl)c[nH]c23)cc1 : 5.64

* * *

tested on: UMUC11; assay: 10-day proliferation screen with Compound A pre-treatment (Example 3); format: cell-based; settings: Cmpd A pre-treatment 150 nM; read-out: Growth IC50
pIC50: −log10 of the molar value.
Parameter: pIC50

1. NS(=O)(=O)c1ccc(S(=O)(=O)Nc2cccc3c(Cl)c[nH]c23)cc1 : 5.90

* * *

system: NCI-H838; assay: 10-day proliferation (CTG), equimolar Compound A + Compound B (Example 1); assay type: cell-based; details: Homo sapiens, NCI-H838, 240 h; 10 days; single agent or 1:1 combo; read-out: gIC50
Parameter: IC50 (µM)

1. Nc1nc(=O)n(-c2ccccc2Cl)c2nc(C(F)(F)F)ccc12 : 0.208
2. Cc1cc(NC(=O)c2ccc(NS(=O)(=O)CCO)cc2N2CCC3(CC2)CC3)nc(N2CCC(F)(F)CC2)n1 : 12.5

* * *

system: TCCSUP; experiment: 10-day proliferation (CTG), equimolar Compound A + SPLAM (Example 4); assay type: cell-based; details: Homo sapiens, TCC-SUP; single agent or 1:1 combo; read-out: gIC50
pIC50: −log10 of the molar value.
Recorded measurements of pIC50, one per entry
Parameter: pIC50

1. O=C(NS(=O)(=O)c1ccc(Br)s1)c1ccc(Cl)cc1Cl : 4.70
2. Nc1nc(=O)n(-c2ccccc2Cl)c2nc(C(F)(F)F)ccc12 : 4.70
